- TARGET_OR_SYSTEM: HLA-B*27:03
- TEST_PROTOCOL: IEDB peptide-MHC binding, purified MHC/competitive/fluorescence; filed as Kd, often an IC50 or EC50 that approximates it; bounds were set here for any values at or beyond the usual limits of such assays
- CONDITION_DETAILS: source organism: Bacillus anthracis str. A0488
PARAMETER: Kd

Which measured Kd value corresponds to FVMPIFEQI ?
≥ 20 µM

----------
- TARGET_OR_SYSTEM: HLA-A*31:01
- TEST_PROTOCOL: IEDB peptide-MHC binding, purified MHC/competitive/radioactivity; filed as Kd, often an IC50 or EC50 that approximates it; bounds were set here for any values at or beyond the usual limits of such assays
- CONDITION_DETAILS: source organism: Vaccinia virus WR
Entries and their Kd
Only the number, expressed in nM, is required.

Sample answers from the record:
Which measured Kd value corresponds to NSFIISTLNK ?
648

Which measured Kd value corresponds to AISKLGINY ?
2740

Which measured Kd value corresponds to MATMLEYVRY ?
1620

More entries:
Which measured Kd value corresponds to VIPFDDIVR ?
338

----------
- TARGET_OR_SYSTEM: HLA-B*15:02
- TEST_PROTOCOL: IEDB peptide-MHC binding, purified MHC/competitive/fluorescence; filed as Kd, often an IC50 or EC50 that approximates it; bounds were set here for any values at or beyond the usual limits of such assays
- CONDITION_DETAILS: source organism: Homo sapiens
PARAMETER: Kd
// return the numeric value with its unit appended

For the record FAFVTDNTY , what value of Kd is listed for HLA-B*15:02?
2.55 nM

----------
- TARGET_OR_SYSTEM: HLA-B*51:01
- TEST_PROTOCOL: IEDB peptide-MHC binding, purified MHC/competitive/fluorescence; filed as Kd, often an IC50 or EC50 that approximates it; bounds were set here for any values at or beyond the usual limits of such assays
- CONDITION_DETAILS: source organism: Lechiguanas virus
pKd: −log10 of the molar value.
PARAMETER: pKd

For the record AMPKTIYEL , what value of pKd is listed for HLA-B*51:01?
≤ 4.70

----------
- TARGET_OR_SYSTEM: HLA-A*02:03
- TEST_PROTOCOL: IEDB peptide-MHC binding, purified MHC/competitive/radioactivity; filed as Kd, often an IC50 or EC50 that approximates it; bounds were set here for any values at or beyond the usual limits of such assays
- CONDITION_DETAILS: source organism: Dengue virus 4 Dominica/814669/1981
PARAMETER: pKd
Note: pKd values are expressed as the negative base-10 logarithm of concentration in M.

Which measured pKd value corresponds to KLSMGLITI ?
7.62

----------
- TARGET_OR_SYSTEM: HLA-A*23:01
- TEST_PROTOCOL: IEDB peptide-MHC binding, purified MHC/competitive/radioactivity; filed as Kd, often an IC50 or EC50 that approximates it; bounds were set here for any values at or beyond the usual limits of such assays
- CONDITION_DETAILS: source organism: SARS coronavirus Tor2
pKd: −log10 of the molar value.
PARAMETER: pKd

Sample answers from the record:
For the record ASFYYIWKSY , what value of pKd is listed for HLA-A*23:01?
≤ 4.49

For the record PVSAMVRMY , what value of pKd is listed for HLA-A*23:01?
≤ 4.41

For the record GTFLCANEY , what value of pKd is listed for HLA-A*23:01?
≤ 4.44

For the record EYPIIGDEL , what value of pKd is listed for HLA-A*23:01?
4.79

For the record STGNYNYKY , what value of pKd is listed for HLA-A*23:01?
≤ 4.11

For the record ETPHLMGWDY , what value of pKd is listed for HLA-A*23:01?
≤ 4.15

More entries:
For the record AMVRMYIFF , what value of pKd is listed for HLA-A*23:01?
6.67

For the record IMLVYCFLGY , what value of pKd is listed for HLA-A*23:01?
≤ 4.15

For the record VYMPASWVM , what value of pKd is listed for HLA-A*23:01?
5.27

For the record EFSSNVANY , what value of pKd is listed for HLA-A*23:01?
≤ 4.11

For the record VYSDVETPHL , what value of pKd is listed for HLA-A*23:01?
6.79

For the record IFWRNTNPI , what value of pKd is listed for HLA-A*23:01?
5.04

For the record CTFLLNKEMY , what value of pKd is listed for HLA-A*23:01?
≤ 4.15

For the record TPSGTWLTY , what value of pKd is listed for HLA-A*23:01?
≤ 4.11

For the record VAEMDGIQY , what value of pKd is listed for HLA-A*23:01?
≤ 4.11

For the record HTLSIHDGY , what value of pKd is listed for HLA-A*23:01?
≤ 4.11

For the record TVATSRTLSY , what value of pKd is listed for HLA-A*23:01?
≤ 4.15

For the record TTTIKPVSY , what value of pKd is listed for HLA-A*23:01?
≤ 4.11

----------
- TARGET_OR_SYSTEM: HLA-B*54:01
- TEST_PROTOCOL: IEDB peptide-MHC binding, purified MHC/competitive/radioactivity; filed as Kd, often an IC50 or EC50 that approximates it; bounds were set here for any values at or beyond the usual limits of such assays
- CONDITION_DETAILS: source organism: Triticum aestivum
pKd: −log10 of the molar value.
PARAMETER: pKd

Which measured pKd value corresponds to QPYPQSQPQY ?
≤ 4.16

----------
- TARGET_OR_SYSTEM: HLA-B*27:03
- TEST_PROTOCOL: IEDB peptide-MHC binding, purified MHC/direct/fluorescence; filed as Kd, often an IC50 or EC50 that approximates it; bounds were set here for any values at or beyond the usual limits of such assays
- CONDITION_DETAILS: source organism: Yersinia enterocolitica subsp. enterocolitica 8081
pKd: −log10 of the molar value.
PARAMETER: pKd

Which measured pKd value corresponds to LAYLAGWII ?
≤ 4.70

----------
- TARGET_OR_SYSTEM: HLA-B*54:01
- TEST_PROTOCOL: IEDB peptide-MHC binding, purified MHC/competitive/radioactivity; filed as Kd, often an IC50 or EC50 that approximates it; bounds were set here for any values at or beyond the usual limits of such assays
- CONDITION_DETAILS: source organism: Mammarenavirus choriomeningitidis
PARAMETER: pKd
Note: pKd values are expressed as the negative base-10 logarithm of concentration in M.

Which measured pKd value corresponds to LPIFSDAAL ?
6.00

----------
- TARGET_OR_SYSTEM: HLA-B*45:01
- TEST_PROTOCOL: IEDB peptide-MHC binding, purified MHC/competitive/radioactivity; filed as Kd, often an IC50 or EC50 that approximates it; bounds were set here for any values at or beyond the usual limits of such assays
- CONDITION_DETAILS: source organism: Mammarenavirus choriomeningitidis
PARAMETER: pKd
Note: pKd values are expressed as the negative base-10 logarithm of concentration in M.

Which measured pKd value corresponds to SDAALHNMI ?
5.67

----------
- TARGET_OR_SYSTEM: HLA-A*01:01
- TEST_PROTOCOL: IEDB peptide-MHC binding, purified MHC/competitive/fluorescence; filed as Kd, often an IC50 or EC50 that approximates it; bounds were set here for any values at or beyond the usual limits of such assays
- CONDITION_DETAILS: source organism: Salmonella enterica subsp. enterica serovar Typhi
PARAMETER: Kd
// return the numeric value with its unit appended

For the record TTITGDSAY , what value of Kd is listed for HLA-A*01:01?
4 µM

----------
- TARGET_OR_SYSTEM: HLA-B*44:02
- TEST_PROTOCOL: IEDB peptide-MHC binding, purified MHC/competitive/radioactivity; filed as Kd, often an IC50 or EC50 that approximates it; bounds were set here for any values at or beyond the usual limits of such assays
- CONDITION_DETAILS: source organism: Dengue virus 3 Sri Lanka/1266/2000
PARAMETER: pKd
Note: pKd values are expressed as the negative base-10 logarithm of concentration in M.

Which measured pKd value corresponds to MEAQLVRQM ?
7.83

As a next step, examine the sequence that follows.
Which measured pKd value corresponds to NTIFTLTVAW ?
5.14

----------
- TARGET_OR_SYSTEM: HLA-A*02:03
- TEST_PROTOCOL: IEDB peptide-MHC binding, purified MHC/competitive/fluorescence; filed as Kd, often an IC50 or EC50 that approximates it; bounds were set here for any values at or beyond the usual limits of such assays
- CONDITION_DETAILS: source organism: Influenza A virus (A/Gf/HK/SSP607/2003(H9N2))
pKd: −log10 of the molar value.
PARAMETER: pKd

Which measured pKd value corresponds to AMITYITRK ?
≤ 4.70
